Test: APR_HepG2_MitoticArrest_24hr: Apredica 24-hour HepG2 Assay for Mitotic Arrest (AID 2282910)
Details: high-content imaging, actives raise or lower the signal
Active and inactive are the calls of the source. The calls were made as follows: active = hit-call score of the fitted dose curve at least 0.9, where 1 is the maximum; inactive = score below 0.9.
Your answer must be one of the following: YES = active, NO = inactive

Sample answers from the record:
# SMILES_INPUT, ASSIGNED_CLASS
records = [
    ("OCCOCCOCCO", "NO"),
    ("c1ccc(C(O[C@@H]2CCCN(CCc3ccc4c(c3)OCO4)C2)c2ccccc2)cc1", "YES"),
    ("Cc1ncc([C@@H](CCCCCCc2ccc3c(n2)NCCC3)CC(=O)O)cn1", "YES"),
    ("OCc1ccccc1", "NO"),
    ("OCC(CO)(CO)CO", "NO"),
]

Inquiry: Record lookup: outcome of this test for CCCCCCCCN(C)C ?
Reply text: NO

Inquiry: What call does the record list for CNC(C)=O ?
Reply text: NO

Inquiry: What was the test verdict on CCCCCOC(C)=O ?
Reply text: NO

Inquiry: Lab log entry: Cn1cc[nH]c1=S — outcome as called in the assay?
Reply text: NO

Where do these numbers come from? They come from PubChem BioAssay (EPA / NIEHS).
